Target: cyclodextrinase (Lysinibacillus sphaericus, UniProt Q08341)
Construct: is cultured in a medium to yield and accumulate said cyclodextrinase, and this enzyme is collected from the culture; made in house; host or cells: Bacillus sphaericus E-244 (FERM BP-2458), the natural wild-type producer strain; not recombinant
Sequence (Q08341 whole entry): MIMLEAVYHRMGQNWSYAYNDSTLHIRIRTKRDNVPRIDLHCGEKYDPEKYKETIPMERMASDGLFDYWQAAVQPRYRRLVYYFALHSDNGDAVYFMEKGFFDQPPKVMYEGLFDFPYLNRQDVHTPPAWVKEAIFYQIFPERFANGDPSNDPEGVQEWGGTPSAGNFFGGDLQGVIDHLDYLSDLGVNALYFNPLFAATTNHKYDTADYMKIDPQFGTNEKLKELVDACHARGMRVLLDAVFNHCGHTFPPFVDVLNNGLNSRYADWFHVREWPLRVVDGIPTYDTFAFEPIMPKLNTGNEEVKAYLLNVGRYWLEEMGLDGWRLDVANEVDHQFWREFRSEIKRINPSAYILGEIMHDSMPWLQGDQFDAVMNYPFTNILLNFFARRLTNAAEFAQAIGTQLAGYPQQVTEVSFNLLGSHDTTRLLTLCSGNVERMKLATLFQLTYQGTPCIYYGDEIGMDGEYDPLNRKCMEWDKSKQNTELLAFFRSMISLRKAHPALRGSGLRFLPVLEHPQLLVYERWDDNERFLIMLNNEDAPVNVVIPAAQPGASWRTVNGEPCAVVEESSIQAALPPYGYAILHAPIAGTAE
Experiment: Substrate specificity of the present cyclodextrinase (relative hydrolysis rate)
Format: biochemical, Bacillus sphaericus
Conditions: substrate conc. 2 mM; β-cyclodextrin = 100
propertyName: Relative hydrolysis rate (%)
Return type: number; implicit unit %.

Data request: So what's the measured Relative hydrolysis rate for this one? OC[C@H]1O[C@H](O[C@H]2[C@H](O)[C@@H](O)[C@@H](O[C@H]3[C@H](O)[C@@H](O)[C@@H](O[C@H]4[C@H](O)[C@@H](O)[C@@H](O[C@H]5[C@H](O)[C@@H](O)[C@@H](O[C@H]6[C@H](O)[C@@H](O)C(O)O[C@@H]6CO)O[C@@H]5CO)O[C@@H]4CO)O[C@@H]3CO)O[C@@H]2CO)[C@H](O)[C@@H](O)[C@@H]1O (some centres unmarked)
Data returned: 43

Data request: So what's the measured Relative hydrolysis rate for this one? OC[C@H]1O[C@H](O[C@H]2[C@H](O)[C@@H](O)[C@@H](O[C@H]3[C@H](O)[C@@H](O)[C@@H](O[C@H]4[C@H](O)[C@@H](O)[C@@H](O[C@H]5[C@H](O)[C@@H](O)[C@@H](O[C@H]6[C@H](O)[C@@H](O)[C@@H](O[C@H]7[C@H](O)[C@@H](O)C(O)O[C@@H]7CO)O[C@@H]6CO)O[C@@H]5CO)O[C@@H]4CO)O[C@@H]3CO)O[C@@H]2CO)[C@H](O)[C@@H](O)[C@@H]1O (some centres unmarked)
Data returned: 66

Data request: So what's the measured Relative hydrolysis rate for this one? OC[C@H]1O[C@@H]2O[C@H]3[C@H](O)[C@@H](O)[C@@H](O[C@H]4[C@H](O)[C@@H](O)[C@@H](O[C@H]5[C@H](O)[C@@H](O)[C@@H](O[C@H]6[C@H](O)[C@@H](O)[C@@H](O[C@H]7[C@H](O)[C@@H](O)[C@@H](O[C@H]1[C@H](O)[C@H]2O)O[C@@H]7CO)O[C@@H]6CO)O[C@@H]5CO)O[C@@H]4CO)O[C@@H]3CO
Data returned: 44

Data request: So what's the measured Relative hydrolysis rate for this one? OC[C@H]1O[C@@H]2O[C@H]3[C@H](O)[C@@H](O)[C@@H](O[C@H]4[C@H](O)[C@@H](O)[C@@H](O[C@H]5[C@H](O)[C@@H](O)[C@@H](O[C@H]6[C@H](O)[C@@H](O)[C@@H](O[C@H]7[C@H](O)[C@@H](O)[C@@H](O[C@H]8[C@H](O)[C@@H](O)[C@@H](O[C@H]1[C@H](O)[C@H]2O)O[C@@H]8CO)O[C@@H]7CO)O[C@@H]6CO)O[C@@H]5CO)O[C@@H]4CO)O[C@@H]3CO
Data returned: 100

Data request: So what's the measured Relative hydrolysis rate for this one? OC[C@H]1O[C@H](O[C@H]2[C@H](O)[C@@H](O)[C@@H](O[C@H]3[C@H](O)[C@@H](O)[C@@H](O[C@H]4[C@H](O)[C@@H](O)[C@@H](O[C@H]5[C@H](O)[C@@H](O)C(O)O[C@@H]5CO)O[C@@H]4CO)O[C@@H]3CO)O[C@@H]2CO)[C@H](O)[C@@H](O)[C@@H]1O (some centres unmarked)
Data returned: 49
